ASSAYED TARGET: native human M-CSF (in human serum or in MDA-MB-231 conditioned medium) (human), P09603
Sequence (P09603 33-255): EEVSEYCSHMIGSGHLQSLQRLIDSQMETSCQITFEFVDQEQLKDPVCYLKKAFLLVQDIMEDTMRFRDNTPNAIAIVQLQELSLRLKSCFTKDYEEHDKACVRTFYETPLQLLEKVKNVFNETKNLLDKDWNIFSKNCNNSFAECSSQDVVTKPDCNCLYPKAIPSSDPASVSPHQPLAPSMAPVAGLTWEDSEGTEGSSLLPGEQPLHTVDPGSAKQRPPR
ASSAY DETAILS: cell-based or functional assay
Would you kindly list IC50, inhibition of M-NFS-60 proliferation induced by MDA-MB-231 conditioned medium for each of these binders?
// return numeric value only (unit: pM, not printed)

Record Satine, IgG1_D265A (antibody, V domains shown) VH: EVQLVESGGGLVKPGGSLRLSCAASGFTFSIYAMSWVRQAPGKGLEWVGRIKSNADGGTTEYAAPVKGRFTISRDDSKNTLYLQMNSLKTEDTAVYYCARMRYYSDLYFDPWGQGTLVTVSS VL: SYELTQPPSVSVSPGQTASITCSGDKLGQKYVSWYQQKPGQSPVLVISQDRKRPSGIPERFSGSNSGNTATLTISGTQAEDEADYYCQTWTHLQWVFGGGTKLTVLGQ , field IC50, inhibition of M-NFS-60 proliferation induced by MDA-MB-231 conditioned medium: 70.8

Record Caline, IgG1_D265A (antibody, V domains shown) VH: QVQLQQSGPGLVKPSQTLSLTCAISGDSVSSNSAAWNWIRQSPSRGLEWLGRTYYRSKWKHEYAMSVKSRITINPDTSKNQFSLQLNSVTPEDTAVYYCARDRYYYSAFDYWGQGTLVTVSS VL: QSALTQPASVSGSPGQSITISCTGTSSDVGGYNSVSWYQQHPGKAPKLMIYAVSNRPSGVSNRFSGSKSGNTASLTISGLQAEDEADYYCASYDERFTRVFGGGTKLTVLGQ , field IC50, inhibition of M-NFS-60 proliferation induced by MDA-MB-231 conditioned medium: 107

Record HeRX1-10G1, IgG1 (antibody, V domains shown) VH: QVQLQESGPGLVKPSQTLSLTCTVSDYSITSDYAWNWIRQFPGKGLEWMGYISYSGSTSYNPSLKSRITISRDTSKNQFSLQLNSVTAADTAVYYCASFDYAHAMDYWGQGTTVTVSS VL: DIVLTQSPAFLSVTPGEKVTFTCQASQSIGTSIHWYQQKTDQAPKLLIKYASESISGIPSRFSGSGSGTDFTLTISSVEAEDAADYYCQQINSWPTTFGGGTKLEIKRT , field IC50, inhibition of M-NFS-60 proliferation induced by MDA-MB-231 conditioned medium: 90.3
